Molecular target: Isoleucine--tRNA ligase (Staphylococcus aureus)
Sequence (P41972 whole entry): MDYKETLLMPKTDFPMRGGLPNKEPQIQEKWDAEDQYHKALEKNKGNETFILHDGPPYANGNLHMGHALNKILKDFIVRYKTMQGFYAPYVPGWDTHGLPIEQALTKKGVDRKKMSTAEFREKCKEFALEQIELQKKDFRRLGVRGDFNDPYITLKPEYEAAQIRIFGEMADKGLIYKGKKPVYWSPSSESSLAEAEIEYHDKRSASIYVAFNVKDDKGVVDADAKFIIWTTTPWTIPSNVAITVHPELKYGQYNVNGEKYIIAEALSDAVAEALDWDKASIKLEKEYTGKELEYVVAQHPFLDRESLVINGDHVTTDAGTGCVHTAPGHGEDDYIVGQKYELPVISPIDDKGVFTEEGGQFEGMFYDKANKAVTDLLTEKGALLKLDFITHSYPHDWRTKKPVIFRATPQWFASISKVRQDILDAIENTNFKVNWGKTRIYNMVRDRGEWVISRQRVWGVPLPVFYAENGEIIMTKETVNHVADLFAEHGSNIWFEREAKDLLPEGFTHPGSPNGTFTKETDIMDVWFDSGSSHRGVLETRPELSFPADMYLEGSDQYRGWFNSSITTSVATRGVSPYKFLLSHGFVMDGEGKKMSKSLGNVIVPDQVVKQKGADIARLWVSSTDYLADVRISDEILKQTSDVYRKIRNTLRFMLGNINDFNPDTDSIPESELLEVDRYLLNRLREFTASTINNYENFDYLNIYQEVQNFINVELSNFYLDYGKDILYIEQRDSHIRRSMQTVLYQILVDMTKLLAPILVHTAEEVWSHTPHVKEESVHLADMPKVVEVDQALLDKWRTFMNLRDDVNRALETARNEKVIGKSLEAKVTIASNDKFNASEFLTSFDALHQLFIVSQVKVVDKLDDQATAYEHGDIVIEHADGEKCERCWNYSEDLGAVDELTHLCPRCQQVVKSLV
READOUT LABEL: pIC50
Numbers only, as −log10 of the molar value.

For orientation, consider the following solved cases.
• CC[C@H](C)[C@H](N)C(=O)NS(=O)(=O)OC[C@H]1O[C@@H](c2nc(-c3ccccc3)cs2)[C@H](O)[C@@H]1O = 5.10
• CCC(C)[C@H](N)C(=O)NS(=O)(=O)OC[C@H]1O[C@@H](c2nc(CCc3ccccc3)cs2)[C@H](O)[C@@H]1O (some centres undefined) = 7.40
• CCC(C)[C@H](N)C(=O)NS(=O)(=O)OC[C@H]1O[C@@H](c2nc(-c3ccc4cc(OC)ccc4c3)cs2)[C@H](O)[C@@H]1O (some centres undefined) = 6.89

Request: Look up pIC50 for this compound: CCC(C)[C@H](N)C(=O)NS(=O)(=O)OC[C@H]1O[C@@H](c2nc(-c3cc(C#N)co3)cs2)[C@H](O)[C@@H]1O (some centres undefined)
Response: 6.62

----------
Molecular target: Leucine--tRNA ligase, cytoplasmic (Homo sapiens, UniProt Q9P2J5)
Sequence (Q9P2J5 whole entry): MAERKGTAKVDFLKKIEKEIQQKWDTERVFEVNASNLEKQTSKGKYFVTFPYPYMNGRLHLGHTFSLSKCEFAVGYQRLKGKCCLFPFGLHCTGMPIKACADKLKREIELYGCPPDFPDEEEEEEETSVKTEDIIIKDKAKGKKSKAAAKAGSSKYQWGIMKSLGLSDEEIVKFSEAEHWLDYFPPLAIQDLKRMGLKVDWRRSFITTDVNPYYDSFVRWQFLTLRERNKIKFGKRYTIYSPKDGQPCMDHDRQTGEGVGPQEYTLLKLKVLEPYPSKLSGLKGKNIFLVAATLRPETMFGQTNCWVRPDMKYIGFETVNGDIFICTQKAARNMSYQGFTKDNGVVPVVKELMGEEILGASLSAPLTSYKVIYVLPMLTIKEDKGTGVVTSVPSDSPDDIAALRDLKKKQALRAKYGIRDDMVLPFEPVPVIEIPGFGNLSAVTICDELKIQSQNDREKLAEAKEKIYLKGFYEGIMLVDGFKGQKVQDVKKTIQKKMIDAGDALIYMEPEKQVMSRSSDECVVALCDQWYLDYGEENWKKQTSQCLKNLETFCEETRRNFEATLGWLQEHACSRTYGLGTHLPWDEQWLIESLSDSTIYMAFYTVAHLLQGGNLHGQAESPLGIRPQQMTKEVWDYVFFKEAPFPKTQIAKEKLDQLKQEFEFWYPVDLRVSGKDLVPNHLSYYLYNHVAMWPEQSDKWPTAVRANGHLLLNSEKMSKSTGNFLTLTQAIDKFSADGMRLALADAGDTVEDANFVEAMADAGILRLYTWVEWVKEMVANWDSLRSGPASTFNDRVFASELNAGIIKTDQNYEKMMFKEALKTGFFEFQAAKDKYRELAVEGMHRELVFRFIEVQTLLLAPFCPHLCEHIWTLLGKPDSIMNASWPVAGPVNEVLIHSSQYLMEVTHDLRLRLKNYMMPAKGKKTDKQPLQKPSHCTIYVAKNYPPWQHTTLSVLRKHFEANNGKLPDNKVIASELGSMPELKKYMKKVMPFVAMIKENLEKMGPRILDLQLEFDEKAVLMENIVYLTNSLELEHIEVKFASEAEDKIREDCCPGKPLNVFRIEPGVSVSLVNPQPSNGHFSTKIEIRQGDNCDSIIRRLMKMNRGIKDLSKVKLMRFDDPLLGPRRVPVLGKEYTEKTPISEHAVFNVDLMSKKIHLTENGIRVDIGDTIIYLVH
READOUT LABEL: pIC50
Give bare numbers, as −log10 of the molar value.

Request: Look up pIC50 for this compound: CC(C)C[C@H](N)C(=O)NS(=O)(=O)OC[C@H]1O[C@@H](c2nc(CCc3ccc(Oc4ccccc4)cc3)cs2)[C@H](O)[C@@H]1O
Response: 5.94

----------
Experiment: Selectivity ratio of human to that of Escherichia coli was determined for isoleucyl-tRNA synthetase
Assignment: determine reported Selectivity for the given compounds.
Give bare numbers.

* CCC(C)[C@H](N)C(=O)NS(=O)(=O)OC[C@H]1O[C@@H](c2nc(CCc3ccc(Oc4ccccc4)cc3)cs2)[C@H](O)[C@@H]1O (stereo partly drawn) | 9.3
* CCC(C)[C@H](N)C(=O)NS(=O)(=O)OC[C@H]1O[C@@H](c2nc(CCc3ccccc3)cs2)[C@H](O)[C@@H]1O (stereo partly drawn) | 10
* CCC(C)[C@H](N)C(=O)NS(=O)(=O)OC[C@H]1O[C@@H](c2nc(-c3cc(C#N)co3)cs2)[C@H](O)[C@@H]1O (stereo partly drawn) | 1
* CCC(C)[C@H](N)C(=O)NS(=O)(=O)OC[C@H]1O[C@@H](c2nc(-c3cccc(OC)c3)cs2)[C@H](O)[C@@H]1O (stereo partly drawn) | 2.3
* CCC(C)[C@H](N)C(=O)NS(=O)(=O)OC[C@H]1O[C@@H](c2nc(-c3ccc(OC)cc3)cs2)[C@H](O)[C@@H]1O (stereo partly drawn) | 2
* CCC(C)[C@H](N)C(=O)NS(=O)(=O)OC[C@H]1O[C@@H](c2nc(-c3ccc(Oc4ccccc4)cc3)cs2)[C@H](O)[C@@H]1O (stereo partly drawn) | 8.2
* CCC(C)[C@H](N)C(=O)NS(=O)(=O)OC[C@H]1O[C@@H](c2nc(-c3ccc4cc(OC)ccc4c3)cs2)[C@H](O)[C@@H]1O (stereo partly drawn) | 4

We now examine a further compound.
Request: Look up Selectivity for this compound: CCC(C)[C@H](N)C(=O)NS(=O)(=O)OC[C@H]1O[C@@H](c2nc(-c3ccccc3OC)cs2)[C@H](O)[C@@H]1O (stereo partly drawn)
Response: 3.3
